biological target: T1, anti-FXI/FXIa antibody NOV1401; assay: solution equilibrium titration (SET), constant Fab with NOV1401 titrated in solution, free Fab captured on biotinylated NOV1401, 1:1 fit; average of n=2
T1 construct: It was amine-coupled to the chip in SPR; In SET it was titrated in solution, and biotinylated NOV1401 served only as the capture reagent on the plate
T1 sequence (VL, as listed by the source): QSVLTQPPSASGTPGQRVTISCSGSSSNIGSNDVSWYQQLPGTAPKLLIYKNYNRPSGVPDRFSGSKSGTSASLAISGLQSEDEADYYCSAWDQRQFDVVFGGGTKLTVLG
pKd: −log10 of the molar value.
Below, each entry is listed with its recorded pKd.
QUANTITY: pKd

BINDER: IDT3 anti-NOV1401 Fab (Fab, V domains shown, Human Fab; The heavy chain entry is VH-CH1 (Fd); also called antidote) VH: QVQLVESGGGLVKPGGSLRLSCAASGFTFQSAAVHWVRQAPGKGLEWVGRIKSKADGGTTDYAAPVKGRFTISRDDSKNTLYLQMNSLKTEDTAVYYCARDSPSISSYSIPYFSGMDVWGQGTLVTVSS VL: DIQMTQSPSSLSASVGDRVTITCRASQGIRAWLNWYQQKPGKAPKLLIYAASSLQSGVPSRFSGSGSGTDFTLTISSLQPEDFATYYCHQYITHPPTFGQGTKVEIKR
NUMERIC_VALUE: 10.00
//
BINDER: IDT1 anti-NOV1401 Fab (Fab, V domains shown, The heavy chain entry is VH-CH1 (Fd); also called antidote) VH: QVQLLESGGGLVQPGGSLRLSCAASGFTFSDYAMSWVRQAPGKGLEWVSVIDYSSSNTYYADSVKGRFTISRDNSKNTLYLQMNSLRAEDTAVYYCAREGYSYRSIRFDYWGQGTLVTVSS VL: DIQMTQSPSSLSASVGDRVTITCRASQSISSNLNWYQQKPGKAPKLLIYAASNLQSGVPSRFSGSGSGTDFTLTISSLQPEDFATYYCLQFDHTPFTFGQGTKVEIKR
NUMERIC_VALUE: 9.96
//
BINDER: IDT7 anti-NOV1401 Fab (Fab, V domains shown, Human Fab; The heavy chain entry is VH-CH1 (Fd); also called antidote) VH: QVQLVESGGGLVKPGGSLRLSCAASGFTFSSNAMHWVRQAPGKGLEWVGRIKSKTDGGTTDYAAPVKGRFTISRDDSKNTLYLQMNSLKTEDTAVYYCARDHYYYPFAYWGQGTLVTVSS VL: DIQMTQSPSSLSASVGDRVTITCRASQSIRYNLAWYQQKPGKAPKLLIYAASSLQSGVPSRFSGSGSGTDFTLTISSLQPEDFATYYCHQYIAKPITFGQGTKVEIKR
NUMERIC_VALUE: 9.02
//
BINDER: IDT10 anti-NOV1401 Fab (Fab, V domains shown, Human Fab; The heavy chain entry is VH-CH1 (Fd); also called antidote) VH: QVQLVQSGAEVKKPGASVKVSCKASGYTFTNYYVHWVRQAPGQGLEWMGWINPYSGNTNYAQKFQGRVTMTRDTSISTAYMELSRLRSEDTAVYYCARGASSIRMSYYLDVWGQGTLVTVSS VL: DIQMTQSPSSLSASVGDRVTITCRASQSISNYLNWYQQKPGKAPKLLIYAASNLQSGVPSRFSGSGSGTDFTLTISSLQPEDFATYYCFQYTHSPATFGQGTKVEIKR
NUMERIC_VALUE: 8.92
//
BINDER: IDT4 anti-NOV1401 Fab (Fab, V domains shown, Human Fab; The heavy chain entry is VH-CH1 (Fd); also called antidote) VH: QVQLVESGGGLVKPGGSLRLSCAASGFTFSSAAVHWVRQAPGKGLEWVGRIKSKASGGTTDYAAPVKGRFTISRDDSKNTLYLQMNSLKTEDTAVYYCARDSPSISSYSIPYFSGMDVWGQGTLVTVSS VL: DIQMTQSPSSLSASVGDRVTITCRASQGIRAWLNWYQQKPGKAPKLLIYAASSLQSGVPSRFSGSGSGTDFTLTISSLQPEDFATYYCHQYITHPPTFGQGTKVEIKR
NUMERIC_VALUE: 9.01
//
BINDER: IDT9 anti-NOV1401 Fab (Fab, V domains shown, Human Fab; The heavy chain entry is VH-CH1 (Fd); also called antidote) VH: QVQLVQSGAEVKKPGASVKVSCKASGYTFTNYYVHWVRQAPGQGLEWMGWINPYNGNTNYAQKFQGRVTMTRDTSISTAYMELSRLRSEDTAVYYCARGASSIRMSYYLDVWGQGTLVTVSS VL: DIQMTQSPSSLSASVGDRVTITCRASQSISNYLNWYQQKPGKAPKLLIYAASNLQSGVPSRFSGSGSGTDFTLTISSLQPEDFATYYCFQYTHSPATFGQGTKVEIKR
NUMERIC_VALUE: 9.17
